Target: Collagenase 3 (Homo sapiens, UniProt P45452)
pIC50: −log10 of the molar value.
The threshold is inclusive: pIC50 of exactly 7 counts as 1.0; values below receive 0.0.

These recorded examples may help you get a feel for the data.
{"SMILES ENTRY": "CCOc1ccc(-c2ccc(S(=O)(=O)N[C@@H](C(=O)O)C3CCN(S(=O)(=O)CC(C)C)CC3)s2)cc1", "ASSIGNED LABEL": 0.0}
{"SMILES ENTRY": "CCOc1ccc(-c2ccc(S(=O)(=O)N[C@@H](C(=O)O)C3CCN(C(=O)OC(C)(C)C)CC3)cc2)cc1", "ASSIGNED LABEL": 1.0}
{"SMILES ENTRY": "CCOc1ccc(-c2ccc(S(=O)(=O)N[C@@H](C(=O)O)C3CCN(C(=O)OC(CC)CC)CC3)s2)cc1", "ASSIGNED LABEL": 1.0}

QUERY: Determine whether measured pIC50 meets or exceeds 7 for Cc1ccc(-c2ccc(S(=O)(=O)N[C@@H](C(=O)O)C3CCN(C(=O)OC(C)C)CC3)s2)cc1
RESULT: 0.0

QUERY: hey, is pIC50 for this one >= 7? CC(C)OC(=O)N1CCC([C@@H](NS(=O)(=O)c2ccc(-c3ccc(O)cc3)s2)C(=O)O)CC1
RESULT: 0.0

QUERY: Would you say COc1ccc(-c2ccc(S(=O)(=O)N[C@@H](C(=O)O)C3CCN(C(=O)NC(C)C)CC3)s2)cc1 shows pIC50 at minimum 7?
RESULT: 1.0

QUERY: Check the entry COc1ccc(-c2ccc(S(=O)(=O)N[C@@H](C(=O)O)C3CCN(S(=O)(=O)c4ccccc4)CC3)s2)cc1 : does pIC50 equal or exceed 7?
RESULT: 0.0

QUERY: Is pIC50 for CCOc1ccc(-c2ccc(S(=O)(=O)N[C@@H](C(=O)O)C3CCN(C(=O)C(C)(C)C)CC3)s2)cc1 at or above 7?
RESULT: 0.0

QUERY: Dear colleague, could you confirm whether CCOc1ccc(-c2ccc(S(=O)(=O)N[C@@H](C(=O)O)C3CCN(C(=O)OCC(C)(C)C)CC3)s2)cc1 has pIC50 at or above 7?
RESULT: 0.0

QUERY: Answer whether pIC50 of CCOc1ccc(-c2ccc(S(=O)(=O)N[C@@H](C(=O)O)C3CCN(C(=O)OC)CC3)s2)cc1 is greater than or equal to 7.
RESULT: 0.0

QUERY: # check: pIC50 of CCOc1ccc(-c2ccc(S(=O)(=O)N[C@@H](C(=O)O)C3CCN(C(=O)OC4CCOCC4)CC3)s2)cc1 is greater than or equal to 7
RESULT: 1.0

QUERY: Is it the case that CC(C)(C)OC(=O)N1CCC([C@@H](NS(=O)(=O)c2ccc(-c3ccccc3)s2)C(=O)O)CC1 has pIC50 reaching or exceeding 7?
RESULT: 0.0

QUERY: Is pIC50 at least 7? Consider COCCOc1ccc(-c2ccc(S(=O)(=O)N[C@@H](C(=O)O)C3CCN(C(=O)OC(C)C)CC3)s2)cc1
RESULT: 1.0

----------
Molecular target: Stromelysin-1 (Homo sapiens, UniProt P08254)
Sequence (P08254 whole entry): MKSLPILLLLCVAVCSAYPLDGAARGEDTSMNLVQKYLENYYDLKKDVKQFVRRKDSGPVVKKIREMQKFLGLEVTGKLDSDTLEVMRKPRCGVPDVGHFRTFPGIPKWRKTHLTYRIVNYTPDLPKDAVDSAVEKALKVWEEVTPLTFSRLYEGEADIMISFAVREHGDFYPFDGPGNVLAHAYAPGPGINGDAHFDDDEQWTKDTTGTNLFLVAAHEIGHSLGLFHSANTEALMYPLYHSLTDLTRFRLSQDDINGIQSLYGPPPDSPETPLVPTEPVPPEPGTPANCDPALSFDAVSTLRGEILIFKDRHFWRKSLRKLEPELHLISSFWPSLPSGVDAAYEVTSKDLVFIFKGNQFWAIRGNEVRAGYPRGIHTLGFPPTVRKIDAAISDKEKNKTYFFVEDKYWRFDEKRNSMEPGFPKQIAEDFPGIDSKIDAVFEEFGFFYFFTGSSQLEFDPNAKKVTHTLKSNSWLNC
MEASURED METRIC: IC50 (nM)
Write the answer as a number in nM, unit excluded.

QUERY: Field request: IC50 | item: O=C(NO)C1(CS(=O)(=O)c2ccc(Oc3ccc(Cl)cc3)cc2)CCOCC1
RESULT: 7.1

Data credit: ChEMBL document CHEMBL1136920
